assay-explanation: Chemical stability
Format: physicochemical
particulars: pH 7.4 phosphate buffer, 37 °C; mean ± SD, n = 3
measured-attribute: t1/2 buffer pH 7.4 (min)
Output spec: scalar in min, unitless text.

These solved cases illustrate the format of a correct answer.
- N[C@@H](Cc1ccccc1)C(=O)N[C@@H](Cc1ccc(O)cc1)C(=O)OC[C@H]1O[C@@H](n2cc(F)c(=O)[nH]c2=O)C[C@@H]1O: 233.9
- N[C@@H](Cc1ccccc1)C(=O)NCC(=O)OC[C@H]1O[C@@H](n2cc(F)c(=O)[nH]c2=O)C[C@@H]1O: 132.1

In the following, a different compound is considered.
The compound listed as `NCC(=O)OC[C@H]1O[C@@H](n2cc(F)c(=O)[nH]c2=O)C[C@@H]1O` shows t1/2 buffer pH 7.4 equal to 85.5
